# system-name: human ether-à-go-go-related gene (hERG) potassium channel (human, UniProt Q12809);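 also: peak tail current of the secondary pulse compared with the same well before compound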
# Sequence (Q12809 whole entry, looked up): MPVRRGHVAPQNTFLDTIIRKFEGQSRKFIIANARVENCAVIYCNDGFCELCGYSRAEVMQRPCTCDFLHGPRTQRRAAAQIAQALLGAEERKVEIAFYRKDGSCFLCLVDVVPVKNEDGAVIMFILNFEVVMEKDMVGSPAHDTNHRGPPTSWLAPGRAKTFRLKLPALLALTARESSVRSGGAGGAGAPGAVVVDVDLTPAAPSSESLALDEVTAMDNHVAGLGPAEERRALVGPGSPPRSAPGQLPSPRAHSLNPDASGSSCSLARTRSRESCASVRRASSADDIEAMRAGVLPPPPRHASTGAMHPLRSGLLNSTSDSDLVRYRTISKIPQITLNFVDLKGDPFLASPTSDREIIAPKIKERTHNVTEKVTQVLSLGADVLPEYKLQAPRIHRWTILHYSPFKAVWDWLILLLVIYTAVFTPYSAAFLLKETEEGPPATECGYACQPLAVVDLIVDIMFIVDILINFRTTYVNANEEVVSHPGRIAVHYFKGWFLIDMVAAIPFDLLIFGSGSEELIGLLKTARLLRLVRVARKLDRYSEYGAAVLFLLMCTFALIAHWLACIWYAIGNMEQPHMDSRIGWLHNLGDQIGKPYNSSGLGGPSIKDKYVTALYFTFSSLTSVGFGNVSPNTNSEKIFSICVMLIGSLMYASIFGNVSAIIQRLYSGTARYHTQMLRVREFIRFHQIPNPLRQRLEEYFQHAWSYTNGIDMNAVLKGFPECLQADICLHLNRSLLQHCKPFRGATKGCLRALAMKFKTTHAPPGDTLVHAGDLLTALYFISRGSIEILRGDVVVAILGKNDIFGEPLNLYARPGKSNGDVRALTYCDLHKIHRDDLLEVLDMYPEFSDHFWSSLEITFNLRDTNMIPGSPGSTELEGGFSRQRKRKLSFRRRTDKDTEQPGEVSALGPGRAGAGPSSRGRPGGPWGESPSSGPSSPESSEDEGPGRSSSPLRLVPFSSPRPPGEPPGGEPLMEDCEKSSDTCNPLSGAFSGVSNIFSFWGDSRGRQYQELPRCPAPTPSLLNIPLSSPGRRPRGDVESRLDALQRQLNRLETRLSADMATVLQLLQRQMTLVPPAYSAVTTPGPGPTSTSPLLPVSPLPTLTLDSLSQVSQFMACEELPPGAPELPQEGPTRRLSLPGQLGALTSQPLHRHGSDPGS
# test-description: primary screen, population patch clamp on CHO cells stably expressing hERG; higher = less effect of the substance
Among all 310,000 compounds or so, about 14,000 (4.5%) showed an effect of 50% or more. Effects have a minus sign here. This is one part of a sample in which strong results are shown more often than they occur.
Listing: hERG current change (%, negative = inhibition) at 10uM of selected molecules
The answer is to be given in %; state only the numeric part.

molecule	numeric-result
CC(=O)/C(=N\Nc1ccc(C)cc1)Sc1nncn1C	-12.8
CC(C)CN(C(=O)COC(=O)c1cccc2ccccc12)c1c(N)n(Cc2ccccc2)c(=O)[nH]c1=O	6.01
COC(=O)C(C)Sc1ccc2nnc(-c3ccccc3)n2n1 (stereo not drawn)	-30.8
Cc1ccc(CNC(=O)c2cccc3c2C(=O)c2ccc(N4CCCCC4)cc2S3(=O)=O)cc1	-6.76
COc1ccccc1N1CC(C(=O)OCc2nc(N)nc(Nc3ccccc3)n2)CC1=O (stereo not drawn)	-15.8
CC1CCCCN1CCNC(=O)c1ccc2c(=O)n(CCc3ccccc3)c(=O)[nH]c2c1 (stereo not drawn)	-38.7

Ask | Form field: reported hERG current change (%, negative = inhibition) at 10uM of "COc1ccc(-c2noc(CCCC(=O)Nc3cccnc3)n2)cc1OC"
Reply | -6.97

Ask | Form field: reported hERG current change (%, negative = inhibition) at 10uM of CC1CC2(CC(C)(C(=O)CSc3nc4ccccc4s3)OC2=O)C(=O)O1 (stereo not drawn)
Reply | -1.16

Ask | Form field: reported hERG current change (%, negative = inhibition) at 10uM of "COc1ccc(NC(=O)C(F)(F)F)cc1OC"
Reply | 15.1

All figures here come from paper PMC4336329.
